target or test system: T1, A beta oligomer (synthetic A beta1-40, HCl form, 0.1 mg/ml in PBS, incubated at 37 degrees C for one hour) (UniProt P05067 672-711)
T1 construct: domain: A beta1-40; non-fibrous multimer of the peptide; also called A beta 1-40 oligomer
assay overview: SPR (Biacore 3000)
Please go through the items and note down their Kd.

The reported value for IR-077 antibody (antibody, mouse IgG2a, V domains shown, mouse IgG2a) VH: DVQLVESGGGLVQPGGSRKLSCAASGFTFSSFGMHWVRQAPEKGLEWVAYISSGSSTIYYADTVKGRFTISRDNPKNTLFLQMTSLRSEDTAMYYCARSGYRYSYYAMDYWGQGTSVTVSS VL: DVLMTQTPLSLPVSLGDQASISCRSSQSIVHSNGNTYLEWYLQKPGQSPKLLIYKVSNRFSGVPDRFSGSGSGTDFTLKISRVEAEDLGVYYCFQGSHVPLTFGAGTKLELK in terms of Kd is 550 nM

Measured Kd, IR-127 antibody (antibody, mouse IgG2a, V domains shown, mouse IgG2a) VH: DVQLVESGGGLVQPGGSRKLSCAASGFTFSSFGMHWVRQAPEKGLEWVAYISSGSSTIYYADTVKGRFTISRDNPKNTLFLQMTSLRSEDTAMYYCARKGTYYRYDAFDYWGQGTTLTVSS VL: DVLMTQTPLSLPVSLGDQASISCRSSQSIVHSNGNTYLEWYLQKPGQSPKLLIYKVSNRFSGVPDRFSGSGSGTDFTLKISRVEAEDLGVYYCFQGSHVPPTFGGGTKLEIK : 1020 nM

Measured Kd of IR-067 antibody (antibody, mouse IgG2b, V domains shown, mouse IgG2b) VH: DVQLVESGGGLVQPGGSRKLSCAASGFTFSSFGMHWVRQAPEKGLEWVAYISSGSSTIYYADTVKGRFTISRDNPKNTLFLQMTSLRSEDTAMYYCARSGGNYLMDYWGQGTSVTVSS VL: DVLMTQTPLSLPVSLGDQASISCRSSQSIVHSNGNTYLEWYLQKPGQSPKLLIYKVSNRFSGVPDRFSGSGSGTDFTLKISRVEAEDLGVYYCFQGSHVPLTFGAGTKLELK : 549 nM

// Kd lookup, binder = IR-154 antibody (antibody, V domains shown, mouse IgG2a) VH: DVQLVESGGGLVQPGGSRKLSCAASGFSFSSFGMHWVRQAPEKGLEWVAYISSGRSTIYYADTVKGRFTISRDNPKNTLFLQMTSLRSEDTAMYYCARLRGNLDYAMDYWGQGTSVTVSS VL: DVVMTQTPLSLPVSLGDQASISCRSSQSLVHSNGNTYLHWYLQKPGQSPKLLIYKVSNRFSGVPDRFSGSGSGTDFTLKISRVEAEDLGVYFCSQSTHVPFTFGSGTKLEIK , result: 1050 nM

Recorded result, IR-112 antibody (antibody, mouse IgG2a, V domains shown, mouse IgG2a) VH: QVTLKESGPGILKPSQTLSLTCSFSGFSLSTSGMGVGWIRQPSGKGLEWLAHIWWDDDKYYNPSLKSQLTISKDTSRNQVFLKITSVDTADTATYYCARRSMITTNDYFDYWGQGTTLTVSS VL: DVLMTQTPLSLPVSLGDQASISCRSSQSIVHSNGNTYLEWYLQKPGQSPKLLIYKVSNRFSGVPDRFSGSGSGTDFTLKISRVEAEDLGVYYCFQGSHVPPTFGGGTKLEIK , Kd: 41.1 nM
